Where these numbers come from: patent US6008220A

Measured target: GCD (recombinant gelatinase A catalytic domain)
Protocol description: Inhibition of recombinant gelatinase A catalytic domain (GCD), thiopeptolide substrate Ac-Pro-Leu-Gly-thioester-Leu-Leu-Gly-OEt
Assay type: biochemical
pIC50: −log10 of the molar value.
Parameter: pIC50

>  <Compound>
O=C(CCC(=O)c1ccc(N2CCC(c3ccccc3)CC2)cc1)NO

>  <Measured result>
7.40

$$$$
>  <Compound>
O=C(O)CCC(=NOCc1ccccc1)c1ccc(N2CCC(c3ccccc3)CC2)cc1

>  <Measured result>
5.20

$$$$
>  <Compound>
CC(CC(=O)O)CC(=O)c1ccc(N2CCC(c3ccccc3)CC2)cc1 (racemic)

>  <Measured result>
4.85

$$$$
>  <Compound>
O=C(O)CCC(=O)c1ccc(N2CCN(c3ccccc3)CC2)cc1

>  <Measured result>
5.80

$$$$
>  <Compound>
O=C(O)CCC(=NO)c1ccc(N2CCC(c3ccccc3)CC2)cc1

>  <Measured result>
6.82

$$$$
>  <Compound>
O=C(O)CCC(=O)c1ccc(N2CCC(c3ccccc3)CC2)cc1

>  <Measured result>
5.89

$$$$

====

Measured target: GCD (recombinant gelatinase A catalytic domain)
Protocol description: Inhibition of recombinant gelatinase A catalytic domain (GCD), thiopeptolide substrate Ac-Pro-Leu-Gly-thioester-Leu-Leu-Gly-OEt
Type: biochemical
Test context: potassium salt
pIC50: −log10 of the molar value. Structures can show the parent of a compound that is named as a salt.

>  <Compound>
O=C(O)CCC(=O)c1ccc(N2CCC(c3ccccc3)CC2)cc1 [potassium salt]

>  <Measured target>
GCD (recombinant gelatinase A catalytic domain)

>  <pIC50>
6.25

$$$$
